# Test system: CEM cells HIV-1 protection, formazan growth assay
# testName: NCI AIDS Antiviral Assay;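 active = compounds giving half or more protection of infected cells from virus-caused growth loss, again on retest; inactive = the rest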
Parameter call: string, one of active, inactive

Could you please tell me the result logged for `CC(C)=NNc1cnnc2ccc([N+](=O)[O-])cc12` in this assay?
inactive

I would be grateful if you could indicate the recorded call for `O=C(Nc1cccc(Cl)c1)Nc1ccc[nH]c1=O` .
inactive

Lab log entry: `CCCCCCOC(=O)c1[nH]c(=O)n(CCCCCC)c(=O)c1N` — outcome as called in the assay?
inactive

Kindly provide the recorded test outcome for the following compound: COCC(N=CN1CCCc2ccccc2[C@@H]1CCCCl)C(C)(C)C (some centres not stated)
inactive

# outcome recorded in this test, key = `C[N+]12CN3CN(C1)CP(=O)(C3)C2`
inactive

Kindly provide the recorded test outcome for the following compound: CC(C)CCC[C@@H](C)[C@H]1CC[C@H]2[C@@H]3CC[C@H]4CC5(C[C@]4(C)[C@H]3CC[C@]12C)Nc1ccccc1S5 (some centres not stated)
inactive

Next:
What classification did `CCOc1ccc(/C=C(\Cl)c2ccc(OC)c(OC)c2)cc1` end up with in this test?
inactive

Record request — test call for CC(=O)OCC1OC(n2c(N)c(C#N)c(-c3ccccc3)c(C#N)c2=S)C(OC(C)=O)C(OC(C)=O)C1OC(C)=O (configuration not stated)
inactive

# fetch the recorded call for CCOC(=O)CCC(NC(=O)c1ccc(CNc2nc3ccccc3nc2C(=O)OCC)cc1)C(=O)OCC (configuration not stated) here
inactive

Per the records of this test, what outcome belongs to `Cn1c(=O)c2c(nc(N/N=c3/scc(-c4ccccc4)n3Cc3ccccc3)n2C)n(C)c1=O` ?
inactive

Hi team, can someone confirm the assay call for `O=[N+]([O-])c1cc(F)ccc1S(=O)(=O)c1ccccc1` ?
inactive

What did the test return for `Cc1ccc(N=Nc2ccc(O)c(=O)cc2)cc1` ?
inactive

GET /call?item= `O=c1[nH]c(=O)n([C@@H]2C[C@H](CO)[C@H](O)C2)cc1/C=C/Br` returns the recorded outcome of this test.
inactive

What call does the record list for CC(NC(=O)C(N)CC(=O)O)NC(=O)C1CCC1 (configuration not stated) ?
inactive

Data provenance: PubChem BioAssay AID179
